# ASSAY_NOTES: Antiproliferative activity against human L02 cells assessed as inhibition of cell proliferation at 1 uM incubated for 72 hrs by SRB assay relative to control
# Assay type: toxicity, cell-based
Record form. Attribute: inhibition at 72 h, 1 µM. Fill in for each entry.
One number for each entry, in %.

Worked examples follow.
COc1cc2c(OCCCc3cn([C@H]4O[C@@H](C)[C@H](O)[C@@H](O)[C@H]4O)nn3)c3c(c(-c4ccc5c(c4)OCO5)c2cc1OC)C(=O)OC3; -0.18
COc1cc2c(NS(N)(=O)=O)c3c(c(-c4ccc5c(c4)OCO5)c2cc1OC)C(=O)OC3; 14.9

Hi there! I need inhibition at 72 h, 1 µM for each item below, if you can.
1. COc1cc2c(NC(=O)OC(C)(C)C)c3c(c(-c4ccc5c(c4)OCO5)c2cc1OC)C(=O)OC3
2. COc1cc2c(OCc3cn([C@H]4O[C@@H](C)[C@H](O)[C@@H](O)[C@H]4O)nn3)c3c(c(-c4ccc5c(c4)OCO5)c2cc1OC)C(=O)OC3
3. COC(=O)CNc1c2c(c(-c3ccc4c(c3)OCO4)c3cc(OC)c(OC)cc13)C(=O)OC2
4. COc1cc2c(O)c3c(c(-c4ccc5c(c4)OCO5)c2cc1OC)C(=O)OC3
5. COc1cc2c(OCCCc3cn([C@H]4O[C@@H](C)[C@H](OC(C)=O)[C@@H](OC(C)=O)[C@H]4OC(C)=O)nn3)c3c(c(-c4ccc5c(c4)OCO5)c2cc1OC)C(=O)OC3

9.56
-1.75
10.8
17.7
38.3

Data credit: ChEMBL document CHEMBL5352426
